Target: JAK1 (Homo sapiens)
Construct: The kinase domain of humanJAK1 was amplified from U937mRNA; His tag (from pFastBac HTb vector; nickel chelate purification) (N); made in house; host or cells: baculovirus; virus made in Sf9, large-scale expression in High Five insect cells
Sequence (P23458 875-1153 limits assumed): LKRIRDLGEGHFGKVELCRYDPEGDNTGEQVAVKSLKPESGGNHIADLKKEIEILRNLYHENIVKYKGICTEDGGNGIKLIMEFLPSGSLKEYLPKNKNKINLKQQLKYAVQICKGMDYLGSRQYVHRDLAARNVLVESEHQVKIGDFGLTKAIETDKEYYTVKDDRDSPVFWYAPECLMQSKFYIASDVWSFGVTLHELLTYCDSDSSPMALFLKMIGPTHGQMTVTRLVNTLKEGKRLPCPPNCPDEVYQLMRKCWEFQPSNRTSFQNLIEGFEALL
Test: JAK1 kinase domain capture-based ELISA kinase assay
Type: biochemical
Settings: Table 6; inhibit 50% of activity at 50 μM
Would you mind telling me the reported IC50 of each entry?

Please indicate IC50 recorded for "CCN(CCO)c1ccc(Nc2nc(-c3ccc(F)c(Cl)c3)cn3ccnc23)cc1"
< 50 µM

# return recorded IC50 for input "O=C(O)c1ccc(-c2cn3ccnc3c(Nc3ccc4cn[nH]c4c3)n2)cc1"
< 50 µM

Give the reported value of IC50 for this record: "O=C(O)CCc1ccc(-c2cn3ccnc3c(NCCc3ccncc3)n2)cc1"
> 50 µM

Give reported IC50 value for "CN1CCCN(c2nc(-c3cccc4ccccc34)cn3ccnc23)CC1"
< 50 µM

Return the recorded IC50 value; entry: CCN(CCO)c1ccc(Nc2nc(-c3ccccc3CO)cn3ccnc23)cc1 [drawing 96]
< 50 µM

Note down IC50 recorded for "CCN(CCO)c1ccc(Nc2nc(-c3cc(C(F)(F)F)cc(C(F)(F)F)c3)cn3ccnc23)cc1"
> 50 µM

Specify reported IC50 for the compound shown: "CCNc1nc(-c2ccc(O)c(OC)c2)cn2ccnc12"
< 50 µM

Please report the measured IC50 for "c1cn2cc(-c3ccc4c(c3)OCO4)nc(NC3CC3)c2n1"
< 50 µM

Query IC50 for "COc1cc(-c2cn3ccnc3c(NC3CC3)n2)ccc1O"
< 50 µM

Hello, please tell me recorded IC50 for this one: "NCc1cccc(-c2cn3ccnc3c(Nc3ccccc3)n2)c1"
< 50 µM

Note down IC50 recorded for Oc1ccc(-c2cn3ccnc3c(N3CCOCC3)n2)cc1 [drawing 90]
> 50 µM

Annotate the compound c1cncc(-c2cn3ccnc3c(Nc3ccc(N4CCOCC4)cc3)n2)c1 [drawing 131] with its measured IC50.
< 50 µM

Determine from records and report IC50 for "Oc1ccc(-c2cn3ccnc3c(Nc3ccccc3)n2)cc1"
< 50 µM

Answer with reported IC50 of "COc1cc(-c2cn3ccnc3c(Nc3ccccc3)n2)cc(OC)c1OC"
< 50 µM

Return IC50 (reported value) for this compound: "c1ccc(CN2CC[C@@H](Nc3nc(-c4ccc5c(c4)OCO5)cn4ccnc34)C2)cc1"
> 50 µM

Please list IC50 recorded for the compound "Brc1cn2ccnc2c(Nc2ccccc2)n1"
< 50 µM

Give recorded IC50. "FC(F)C(F)(F)Oc1cccc(Nc2nc(-c3cc(C(F)(F)F)cc(C(F)(F)F)c3)cn3ccnc23)c1"
< 50 µM

Give the reported value of IC50 for this record: "c1ccc(Nc2nc(-c3ccc4c(c3)OCO4)cn3ccnc23)cc1"
< 50 µM

Recall and state the measured IC50 for "c1coc(-c2cn3ccnc3c(Nc3ccc4[nH]ccc4c3)n2)c1" .
< 50 µM

Read off the recorded IC50 for "Fc1ccccc1-c1cn2ccnc2c(NCCc2cccnc2)n1"
< 50 µM

Write down IC50 measured for item "c1ccc2cc(-c3cn4ccnc4c(Nc4ccc(N5CCOCC5)cc4)n3)ccc2c1"
< 50 µM

Hello, please tell me recorded IC50 for this one: "CC(=O)Nc1cccc(-c2cn3ccnc3c(Nc3ccc(N4CCOCC4)cc3)n2)c1"
< 50 µM
